- Measurement Conditions: 328.15 K; 100 kPa; Liquid; Vibrating tube method
For each entry below, report its mass density value.
Write down the numeric answer in kg/m3 and omit the unit.

response.value for CCCC[N+]1(C)CCCC1.O=S(=O)([N-]S(=O)(=O)C(F)(F)F)C(F)(F)F (field: mass density) = 1367.94

response.value for CCCO (field: mass density) = 774.79

response.value for CC[S+](CC)CC.O=S(=O)([N-]S(=O)(=O)C(F)(F)F)C(F)(F)F [triethylsulfonium bis((trifluoromethyl)sulfonyl)imide] (field: mass density) = 1431.27

response.value for O=S(=O)([N-]S(=O)(=O)C(F)(F)F)C(F)(F)F.On1cc[n+](O)c1 [1,3-dihydroxyimidazolium bis(trifluoromethylsulfonyl)imide] (field: mass density) = 1705.44

response.value for C=CCn1cc[n+](C)c1.O=S(=O)([N-]S(=O)(=O)C(F)(F)F)C(F)(F)F (field: mass density) = 1469.5

====

- Measurement Conditions: 298.15 K; 100 kPa; Liquid; Frequency=3 MHz; Single path-length method
± gives the expanded uncertainty stated by the source.
Quantity Kind: speed of sound
Report the figure along with its unit, number first.

response.value for CC[S+](CC)CC.O=S(=O)([N-]S(=O)(=O)C(F)(F)F)C(F)(F)F [triethylsulfonium bis((trifluoromethyl)sulfonyl)imide] (field: speed of sound) = 1242.5 ± 6.1 m/s

response.value for O=S(=O)([N-]S(=O)(=O)C(F)(F)F)C(F)(F)F.On1cc[n+](O)c1 [1,3-dihydroxyimidazolium bis(trifluoromethylsulfonyl)imide] (field: speed of sound) = 1196.6 ± 6.3 m/s

response.value for CCCO (field: speed of sound) = 1206.5 ± 6 m/s

response.value for C=CCn1cc[n+](C)c1.O=S(=O)([N-]S(=O)(=O)C(F)(F)F)C(F)(F)F (field: speed of sound) = 1240.2 ± 6.2 m/s

response.value for CCCC[N+]1(C)CCCC1.O=S(=O)([N-]S(=O)(=O)C(F)(F)F)C(F)(F)F (field: speed of sound) = 1269.4 ± 6.3 m/s

====

- Measurement Conditions: 343.15 K; 100 kPa; Liquid; Vibrating tube method
Quantity Kind: mass density (kg/m3)
Write down the numeric answer in kg/m3 and omit the unit.

response.value for CC[S+](CC)CC.O=S(=O)([N-]S(=O)(=O)C(F)(F)F)C(F)(F)F [triethylsulfonium bis((trifluoromethyl)sulfonyl)imide] (field: mass density) = 1417.19

response.value for O=S(=O)([N-]S(=O)(=O)C(F)(F)F)C(F)(F)F.On1cc[n+](O)c1 [1,3-dihydroxyimidazolium bis(trifluoromethylsulfonyl)imide] (field: mass density) = 1688.34

response.value for CCCC[N+]1(C)CCCC1.O=S(=O)([N-]S(=O)(=O)C(F)(F)F)C(F)(F)F (field: mass density) = 1354.98

response.value for CCCO (field: mass density) = 761.53

response.value for C=CCn1cc[n+](C)c1.O=S(=O)([N-]S(=O)(=O)C(F)(F)F)C(F)(F)F (field: mass density) = 1454.75

====

- Measurement Conditions: 288.15 K; 100 kPa; Liquid; Frequency=3 MHz; Single path-length method
Quantity Kind: speed of sound (m/s)
Write down the numeric answer in m/s and omit the unit.

response.value for CCCO [propan-1-ol] (field: speed of sound) = 1241.1

response.value for CC[S+](CC)CC.O=S(=O)([N-]S(=O)(=O)C(F)(F)F)C(F)(F)F [triethylsulfonium bis((trifluoromethyl)sulfonyl)imide] (field: speed of sound) = 1263.3

response.value for CCCC[N+]1(C)CCCC1.O=S(=O)([N-]S(=O)(=O)C(F)(F)F)C(F)(F)F (field: speed of sound) = 1292.5

response.value for C=CCn1cc[n+](C)c1.O=S(=O)([N-]S(=O)(=O)C(F)(F)F)C(F)(F)F (field: speed of sound) = 1263.1

Origin of measurements: the NIST ThermoML archive (doi:10.1021/acs.jced.8b00537)
